Every entry's value here was drawn from patent US20100166859A1.

System Under Test: glycine co-agonist site on the NMDA receptor (Rattus norvegicus, UniProt P35439)
Test: [3H] MDL-105519 radioligand binding assay, glycine co-agonist site of the NMDA receptor
Measurement Setup: displacement of 0.33 nM [3H] MDL-105519, rat cerebral cortex membranes, 4° C., 30 min; semi-quantitative, duplicates
Where a SMILES comes first, the peptide text is derived from it. [ ]: non-standard residue; d: D form. ξ: configuration not given here. ξP = O=C(O)C1CCCN1
Assay Endpoint: pIC50
Here pIC50 is given on a logarithmic scale as minus log10 of the concentration in mol/L.

Req: Please look up its pIC50: NCC(=O)NCC(=O)N1CCCC1C(=O)O (stereo not drawn) [GGP] (H-Gly-Gly-[ξP]-OH)
Resp: 4.95

----------
System Under Test: AMPA receptor
Test: [3H] AMPA radioligand binding assay
Measurement Setup: displacement of 5 nM [3H] AMPA, rat cerebral cortex membranes, 25° C., 90 min; semi-quantitative, duplicates
Where a SMILES comes first, the peptide text is derived from it.
Assay Endpoint: pIC50
// field semantics: pIC50 = negative decimal log of concentration (mol/L)

Req: What pIC50 appears in the records for this compound with AMPA receptor? NC(CCC(=O)O)C(=O)N1CCCC1C(=O)N1CCCC1C(=O)O (stereo not drawn) [EPP] (H-Glu-Pro-Pro-OH; configuration not given here)
Resp: 4.85
